Biological target: human CCR5 chemokine receptor (Homo sapiens)
Construct: expressed in transfected cells; host or cells: NIH 3T3 cells (murine), membranes
Sequence (P51681 whole entry): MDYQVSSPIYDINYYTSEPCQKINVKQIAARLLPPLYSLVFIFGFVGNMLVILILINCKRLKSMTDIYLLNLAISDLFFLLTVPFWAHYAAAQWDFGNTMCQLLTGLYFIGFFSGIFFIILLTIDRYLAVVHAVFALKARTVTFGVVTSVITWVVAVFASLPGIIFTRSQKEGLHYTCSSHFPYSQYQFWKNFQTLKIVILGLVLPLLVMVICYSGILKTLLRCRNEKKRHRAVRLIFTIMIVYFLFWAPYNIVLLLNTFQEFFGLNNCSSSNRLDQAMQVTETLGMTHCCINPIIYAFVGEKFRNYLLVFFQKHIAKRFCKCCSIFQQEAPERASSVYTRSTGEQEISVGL
Assay: CCR5 membrane binding assay (inhibition of RANTES binding)
Conditions: 125I-RANTES; membranes from NIH 3T3 cells expressing the human CCR5 chemokine receptor; one hour incubation
metric_name: Ki (nM)

P: Cc1cccc(C)c1C(=O)N1CCC(N2CCN(C(C)c3ccc(-c4ccccc4)cc3)C(C)C2)CC1 (centres unmarked) [Example 16]
Q: Cc1cccc(C)c1C(=O)N1CCC(N2CCN(C(C)c3ccc(I)cc3)C(C)C2)CC1 (centres unmarked) [Example 11]
Challenge: Lab notebook, comparison: P versus Q , higher Ki goes to which? API: response body contains the label of the selected item.
Response given: P
(P: 60 nM, Q: 10.5 nM)
